Each recorded value in this set is attributed to paper PMC11607638.

tested on: SK receptor gene SKR; experiment: Fura-2 calcium imaging in perifused SKR-CHO-K1 cells; type: cell-based, Aedes aegypti; settings: read-out: EC50, calcium oscillations (areas under the peak above baseline per 10 min); SK2; SKR-CHO-K1, Fura-2 F340/F380; N = 5-8
property_measured: EC50 (nM)
Numbers only; they are read as nM.

**Query** Hello, please tell me recorded EC50 for this one: GGEGEQFDDY(SO3H)GHMRF [SK2]
**Result** 0.251
